- SYSTEM: RPA WT (RPA70-RPA32-RPA14) (human, UniProt P27694;P15927;P35244 1-616;1-270;1-121)
- Sequence (P27694 whole entry, chain 1 of 3): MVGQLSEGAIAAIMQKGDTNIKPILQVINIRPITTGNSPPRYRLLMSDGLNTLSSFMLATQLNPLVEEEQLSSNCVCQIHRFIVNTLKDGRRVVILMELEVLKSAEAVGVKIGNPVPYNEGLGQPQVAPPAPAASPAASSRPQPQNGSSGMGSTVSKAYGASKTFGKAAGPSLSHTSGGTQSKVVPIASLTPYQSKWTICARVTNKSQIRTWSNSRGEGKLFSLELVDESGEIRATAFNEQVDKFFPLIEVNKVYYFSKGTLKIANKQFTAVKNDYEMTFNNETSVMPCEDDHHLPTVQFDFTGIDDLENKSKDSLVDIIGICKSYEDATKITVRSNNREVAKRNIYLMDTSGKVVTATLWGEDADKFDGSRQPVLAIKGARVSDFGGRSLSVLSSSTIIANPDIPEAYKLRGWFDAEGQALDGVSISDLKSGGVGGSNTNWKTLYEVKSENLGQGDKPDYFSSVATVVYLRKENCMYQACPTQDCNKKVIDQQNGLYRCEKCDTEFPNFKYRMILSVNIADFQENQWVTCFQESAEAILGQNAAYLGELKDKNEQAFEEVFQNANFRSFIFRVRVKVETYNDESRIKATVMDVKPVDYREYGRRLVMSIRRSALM
- Sequence (P15927 whole entry, chain 2 of 3): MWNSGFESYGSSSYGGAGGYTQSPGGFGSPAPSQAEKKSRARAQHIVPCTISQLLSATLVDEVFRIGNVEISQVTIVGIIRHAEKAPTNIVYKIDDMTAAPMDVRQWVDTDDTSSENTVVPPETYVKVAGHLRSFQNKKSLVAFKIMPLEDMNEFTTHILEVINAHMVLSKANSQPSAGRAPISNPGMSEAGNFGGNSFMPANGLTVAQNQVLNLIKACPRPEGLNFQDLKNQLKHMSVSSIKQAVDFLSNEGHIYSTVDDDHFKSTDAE
- Sequence (P35244 whole entry, chain 3 of 3): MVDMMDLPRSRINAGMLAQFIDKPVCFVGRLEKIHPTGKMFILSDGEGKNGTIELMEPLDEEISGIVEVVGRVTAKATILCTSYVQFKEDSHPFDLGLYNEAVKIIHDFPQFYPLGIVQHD
- EXPERIMENT DESCRIPTION: fluorescence anisotropy; 200 mM KCl; FA: 200 mM NaCl, KCl or LiCl, 20 mM HEPES pH 7.4, 1 mM DTT, 22-25 C, 375 or 750 pM oligo, Kd,app +/- SEM; EMSA: 20 mM HEPES pH 7.4, 200 mM KCl, 1 nM 32P oligo
- STUDY CONDITIONS: protein: recombinant; tags: 6xHis N-term on RPA70 and RPA14; copies: 1;1;1; label: 5' fluorescein; intramolecular G4 at 3' end, 5' tail; linear in LiCl
EXPERIMENTAL READOUT: pKd
# reply with the number alone; pKd is -log10 of concentration in mol/L

Return pKd (reported value) for this binder: AGTGTGAGTGTGAGTGTTAGGGTTAGGGTTAGGGTTAGGG (structured_DNA) [Tel40 3' G4]
9.28

The measured values listed here are drawn from paper PMC10250233.
